# assayTarget: WT/R232 STING protein (Homo sapiens, UniProt Q86WV6, H232R)
# Construct: host or cells: HEK293T
# Sequence (Q86WV6 whole entry H232R): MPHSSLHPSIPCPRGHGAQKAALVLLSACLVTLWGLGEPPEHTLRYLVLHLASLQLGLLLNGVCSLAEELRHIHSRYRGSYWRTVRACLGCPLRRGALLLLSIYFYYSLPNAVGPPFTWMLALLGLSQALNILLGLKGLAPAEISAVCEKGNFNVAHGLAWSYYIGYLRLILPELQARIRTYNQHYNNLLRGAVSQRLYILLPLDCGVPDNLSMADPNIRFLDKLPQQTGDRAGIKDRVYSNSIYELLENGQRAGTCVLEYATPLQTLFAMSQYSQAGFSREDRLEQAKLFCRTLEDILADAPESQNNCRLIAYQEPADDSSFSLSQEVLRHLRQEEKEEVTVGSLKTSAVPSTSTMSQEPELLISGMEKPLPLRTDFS
# assayName: Luciferase reporter assay in HEK293T-hSTING-Luciferase cells (R232)
# Format: cell-based
# testContext: 20 hr stimulation, EC50 range
pEC50: −log10 of the molar value.
quantity: pEC50

1) CCn1nc(C)cc1CN1C(=O)C(C)(C)c2ccc(C(=O)NCc3c(F)cc(F)cc3F)cc21 [Example 117] :: ≥ 6.00
2) Cc1ccc(CNC(=O)c2ccc3c(c2)N(Cc2ccccc2Cl)C(=O)C3(C)C)o1 [Example 51] :: 5.00 to 6.00
3) Cc1ccc(CNC(=O)c2ccc3c(c2)N(CCc2ccccc2)C(=O)C3(C)C)o1 [Example 59] :: 5.00 to 6.00

Test item CC1(C)C(=O)N(Cc2ccc(N=[N+]=[N-])cc2)c2cc(C(=O)NCc3c(F)cc(F)cc3F)ccc21 [Example 56] ; WT/R232 STING protein (Homo sapiens, UniProt Q86WV6, H232R); reported pEC50 was ≥ 6.00

Note to self: pEC50 of Cc1cccc(CNC(=O)c2ccc3c(c2)N(Cc2c(F)cccc2Cl)C(=O)C3(C)C)c1 [Example 8] with WT/R232 STING protein (Homo sapiens, UniProt Q86WV6, H232R) was ≥ 6.00

Response field pEC50 (WT/R232 STING protein (Homo sapiens, UniProt Q86WV6, H232R)) for item CC1(C)C(=O)N(Cc2cccc(C(N)=O)c2)c2cc(C(=O)NCc3c(F)cc(F)cc3F)ccc21 [Example 37] : 5.00 to 6.00

Assay WT/R232 STING protein (Homo sapiens, UniProt Q86WV6, H232R), sample CC1(C)C(=O)N(Cc2c(F)cccc2OC(F)F)c2cc(C(=O)NCc3c(F)cc(F)cc3F)ccc21 [Example 111] , pEC50 read: ≥ 6.00

// pEC50 (WT/R232 STING protein (Homo sapiens, UniProt Q86WV6, H232R)) for CC1(C)C(=O)N(Cc2ccccc2)c2cc(C(=O)NCc3ccccc3)ccc21 [Example 10] = 5.00 to 6.00

Origin of measurements: patent US20200172483A1
